Hey, just so you know, these numbers are from paper PMC10072198.

TEST DESCRIPTION: Determination of GSH t1/2 values
SETTINGS: buffer, pH 7.4
MEASURED PROPERTY: half-life at 0.05 mM
Report as: number unit

The reported half-life at 0.05 mM of the molecule O=C(NCCc1ccc(F)cc1)n1ccnc1 was 13.4 min

* * *

TEST DESCRIPTION: in vitro
SETTINGS: human
Listed compounds paired with reported CC50

The cases that follow already have their CC50 on record.
STRUCTURE AS SMILES | RESULT
Cn1ncc(C(=O)CCl)n1 | 62.5 µM
O=S(=O)(F)c1cncc(Cl)n1 | > 500 µM

Continue with the compound presented below.
The reported CC50 of the compound O=C(NCCc1ccc(F)cc1)n1ccnc1 was > 500 µM
